System: Enterococcus faecalis
Test: Antibacterial activity against vancomycin-sensitive Enterococcus faecalis isolate L559 by broth microdilution method
Format: functional
measurement_label: MIC (µg/mL)
Numeric only. Scale: µg/mL

[[record]]
compound = "CN[C@H](CC(C)C)C(=O)N[C@H]1C(=O)N[C@@H](CC(N)=O)C(=O)N[C@H]2C(=O)N[C@H]3C(=O)N[C@H](C(=O)N[C@H](C(=O)O)c4cc(O)cc(O)c4-c4cc3ccc4O)[C@H](O)c3ccc(c(Cl)c3)Oc3cc2cc(c3O[C@@H]2O[C@H](CO)[C@@H](O)[C@H](O)[C@H]2O[C@H]2C[C@](C)(N)[C@H](O)[C@H](C)O2)Oc2ccc(cc2Cl)[C@H]1O [VANCOMYCIN]"
reported = 1


Lab note: next compound to report on.
MIC for CC[C@H]1C[C@@]23OC(=O)C(=C2O)C(=O)[C@]2(CC)[C@@H](C=C[C@@H]4[C@@H](O[C@H]5C[C@@H](O)[C@H](NC(=O)c6[nH]ccc6Br)[C@@H](C)O5)[C@@H](C)CC[C@@H]42)CCCC/C=C/[C@@]3(C)C=C1C(=O)O is 16
